- System Under Test: T1, human BDCA2 (human, UniProt Q8WTT0 1-213)
- T1 construct: whole, on cells; also called hBDCA2; Blood dendritic cell antigen 2
- T1 sequence (looked up): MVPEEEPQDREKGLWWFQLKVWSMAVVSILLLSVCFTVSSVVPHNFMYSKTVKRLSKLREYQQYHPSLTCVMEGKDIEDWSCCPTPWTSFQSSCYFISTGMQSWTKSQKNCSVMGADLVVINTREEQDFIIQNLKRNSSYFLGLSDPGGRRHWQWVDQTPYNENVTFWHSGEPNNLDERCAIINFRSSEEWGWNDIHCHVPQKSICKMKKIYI
- Measurement Protocol: FACS, CHOK1-humanBDCA2 cells
Property Measured: pEC50
Notebook: values listed as pEC50 are -log10 of the concentration (mol/L).

Solved entries (count: 5):
>  <Binder>
mab005c (antibody, V domains shown) VH: QVQLKQSGPGLVQPSQSLSITCTVSGFSLTNYGVHWVRQSPGKGLEWLGVIWSGESTDYDAAFISRLSISKDNSKSQVFFKMNSLQADDSAIYYCARRRSHYYGYVMDYWGQGTSVTVSS VL: DIVLTQSPASLAVSLGQRATISCKASQSIDYDGIGYLNWYQHKPGQPPKLLIYAASNLESGIPARFSGSGSGTDFTLNIHPVEEEDAATYYCQQSNEDPPTFGSGTKLEIK

>  <pEC50>
8.66

$$$$
>  <Binder>
Hu005-07 (antibody, IgG1, V domains shown, Humanized IgG1; also called hu005-07(BM5)) VH: QVQLQESGPGLVKPSETLSLTCTVSGGSITNYGVHWIRQPPGKGLEWIGVIWSGESTDYDAAFISRVTISKDNSKNQVSLKLSSVTAADTAVYYCARRRSHYYGYVMDYWGQGTTVTVSS VL: DIVLTQSPASLAVSPGQRATITCKASQSIDYDAIGYLNWYQHKPGQPPKLLIYAASNLESGVPARFSGSGSGTDFTLTINPVEANDTANYYCQQSNEDPPTFGQGTKLEIK

>  <pEC50>
8.70

$$$$
>  <Binder>
Hu005-04 (antibody, human IgG1, kappa, V domains shown, Humanized IgG1; also called hu005-04(BM6)) VH: QVQLQQSGPGLVKPSETLSLTCTVSGGSLTNYGVHWIRQPPGKGLEWIGVIWSGESTDYDAAFISRVTISKDNSKNQVSLKLSSVTAADTAVYYCARRRSHYYGYVMDYWGQGTTVTVSS VL: DIVLTQSPASLAVSPGQRATITCKASQSIDYDAIGYLNWYQQKPGQPPKLLIYAASNLESGVPARFSGSGSGTDFTLTINPVEANDTANYYCQQSNEDPPTFGQGTKLEIKR

>  <pEC50>
8.64

$$$$
>  <Binder>
Hu005-08 (antibody, IgG1, V domains shown, Humanized IgG1; also called hu005-08(BM7)) VH: QVQLQQSGPGLVKPSETLSLTCTVSGGSLTNYGVHWIRQPPGKGLEWIGVIWSGESTDYDAAFISRVTISKDNSKNQVSLKLSSVTAADTAVYYCARRRSHYYGYVMDYWGQGTTVTVSS VL: DIVLTQSPASLAVSPGQRATITCKASQSIDYDAIGYLNWYQHKPGQPPKLLIYAASNLESGVPARFSGSGSGTDFTLTINPVEANDTANYYCQQSNEDPPTFGQGTKLEIK

>  <pEC50>
8.64

$$$$
>  <Binder>
Hu005-24 (antibody, IgG1, V domains shown, Humanized IgG1; also called hu005-24(BM6)) VH: QVQLQQSGPGLVKPSETLSLTCTVSGGSLTNYGVHWIRQPPGKGLEWIGVIWSGESTDYDAAFISRVTISKDNSKNQVSLKLSSVTAADTAVYYCARRRSHYYGYVMDYWGQGTTVTVSS VL: DIQMTQSPSSLSASVGDRVTITCKASQSIDYDAIGYLNWYQQKPGKAPKLLIYAASNLESGVPSRFSGSGSGTDFTLTISSLQPEDFATYYCQQSNEDPPTFGQGTKLEIK

>  <pEC50>
8.72

$$$$

# input Quickly give me recorded pEC50 for BIIB059 (antibody, V domains shown) VH: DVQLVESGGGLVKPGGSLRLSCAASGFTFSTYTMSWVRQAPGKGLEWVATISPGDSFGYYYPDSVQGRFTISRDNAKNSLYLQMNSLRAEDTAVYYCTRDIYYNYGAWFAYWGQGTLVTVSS VL: DIQLTQSPSSLSASVGDRVTITCKASQSVDYDGDSYMNWYQQKPGKAPKLLIYAASTLESGVPSRFSGSGSGTDFTLTISSLQPEDFATYYCQQANEDPRTFGQGTKVEIKR
# output 8.51
